Tested on: SKOV3
Test: Primary qHTS to identify gynecologic anti-cancer compounds using libraries of approved drugs and bioactive compounds (AID 1345084); also: nearly all actives have a fitted effect of over 55% in size
Conditions: Gynecologic cancer cell panel viability, ATPlite luminescence, 48 h; series mostly up to 57.5 µM
Inconclusive results are not listed. The source made the active and inactive calls. Calls follow the shape of the dose curve; as a rule, active = well fitted cell-killing curve with a large enough effect; inconclusive = small, poorly fitted or top-dose-only effect, or effect the other way; inactive = flat fitted curve, though single readings scatter.
Output constraint: value belongs to true (1) (active), false (0) (inactive)

stdin: Test call for this compound, please: CC1=CC(=O)[C@H]2C(C)(C)CCC[C@]2(C)[C@@]1(O)CO
stdout: false (0)

stdin: Try this compound too: CC1C(=O)OCC2=CCN3CCC(OC(=O)C(C)(O)C1(C)O)C23 (stereo not drawn)
stdout: false (0)

stdin: Try this compound too: C[C@@H]1O[C@@H](OC[C@H]2O[C@@H](OC(CCCCc3ccc(O)cc3)CCc3ccc(O)cc3)[C@H](O)[C@@H](O)[C@@H]2O)[C@H](O)[C@H](O)[C@H]1O (stereo partly drawn)
stdout: false (0)

====

Assay: Primary qHTS for inhibitors of nuclear receptor binding SET domain protein 2 (NSD2) in an isogenic RCH-ACV NSD2 p.E1099K mutant (9B) (AID 1645876); also: nearly all actives have a fitted effect of over 70% in size
Conditions: RCH-ACV (leukaemia line) NSD2 E1099K (9B) viability, CellTiter-Glo, 72 h; series mostly up to 44.9 µM
Inconclusive results are not listed. Calls of active or inactive are those of the source. Calls follow the shape of the dose curve; as a rule, active = well fitted inhibition curve with a large enough effect; inconclusive = small, poorly fitted or top-dose-only effect; inactive = flat fitted curve, though single readings scatter.
Output constraint: value belongs to True (active), False (inactive)

Previously resolved entries follow.
[
  {
    "compound": "CC(C)C(CO)Nc1nc(Nc2ccc(C(=O)O)c(Cl)c2)c2ncn(C(C)C)c2n1 (stereo not drawn)",
    "class_label": "False"
  },
  {
    "compound": "CN=C(N)NCCCCC/C=C(/C)CC(C)C1OC(=O)C(C)C(O)/C=C/C(C)C(O)CC(O)C(C)C(O)CCC(C)C(O)CC2(O)OC(CC(OC(=O)CC(=O)O)CC(O)CC(O)C(C)C(O)/C(C)=C/CCC1C)CC(O)C2O (stereo not drawn)",
    "class_label": "True"
  }
]

Now consider a different compound.
stdin: Test call for this compound, please: C[C@@H]1CC[C@]2(C(=O)O)CC[C@]3(C)C(=CCC4[C@@]5(C)C[C@@H](O)[C@H](O)[C@@](C)(CO)C5CC[C@]43C)C2[C@]1(C)O (stereo partly drawn)
stdout: False

====

Biological target: Glutathione peroxidase 1 (Homo sapiens) (UniProt P07203)
Sequence (P07203 whole entry, looked up): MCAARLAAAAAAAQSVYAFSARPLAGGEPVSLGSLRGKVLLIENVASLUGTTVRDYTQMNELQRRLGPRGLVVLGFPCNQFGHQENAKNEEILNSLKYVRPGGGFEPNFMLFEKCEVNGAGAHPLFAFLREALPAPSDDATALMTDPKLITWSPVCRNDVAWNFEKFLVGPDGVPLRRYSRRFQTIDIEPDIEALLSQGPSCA
Assay: Primary qHTS Assay for Inhibitors of Recombinant Selenoprotein Glutathione Peroxidase 1 (GPX1) (AID 1845191); also: nearly all actives have a fitted effect of over 65% in size
Conditions: recombinant GPX1, GR-coupled NADPH fluorescence, 15 min; series mostly up to 48.8 µM
Results filed as inconclusive are left out. Calls of active or inactive are those of the source. Calls follow the shape of the dose curve; as a rule, active = well fitted inhibition curve with a large enough effect; inconclusive = small, poorly fitted or top-dose-only effect; inactive = flat fitted curve, though single readings scatter.
assay_endpoint: outcome

[
  {
    "compound": "C[C@@H]1O[C@@H](O[C@H]2[C@H](O[C@H]3[C@H](O[C@H]4CC[C@@]5(C)C(CC[C@]6(C)C5CC=C5[C@@H]7CC(C)(C)CC[C@]7(C(=O)O[C@@H]7O[C@H](CO)[C@@H](O[C@@H]8O[C@@H](C)[C@H](O)[C@@H](O)[C@H]8O)[C@H](O)[C@H]7O)CC[C@]56C)C4(C)C)OC[C@H](O)[C@@H]3O)O[C@H](CO)[C@@H](O)[C@@H]2O)[C@H](O)[C@H](O)[C@H]1O (stereo partly drawn)",
    "result": "inactive [at 9.52 µM]"
  },
  {
    "compound": "C=CC(C)(O)CC/C=C(\\C)C(=O)OC1C(O)C(CO)OC(OC(=O)C23CCC(C)(C)CC2C2=CCC4C5(C)CCC(OC6OC(COC7OCC(OC(C)=O)C(O)C7OC7OC(COC(C)=O)C(O)C(O)C7O)C(O)C(O)C6O)C(C)(C)C5CCC4(C)C2(C)C(O)C3O)C1OC1OCC(OC2OCC(O)C(OC3OCC(O)C(O)C3O)C2O)C(O)C1O (stereo not drawn)",
    "result": "inactive [at 9.52 µM]"
  },
  {
    "compound": "COC1CC(O[C@H]2CC[C@@]3(C)C(=CC[C@]4(O)C3[C@H](OC(C)=O)[C@@H](OC(=O)c3ccccc3)[C@]3(C)[C@@H](C(C)=O)CC[C@@]34O)C2)OC(C)C1OC1CC(OC)C(OC2CC(OC)C(OC3OC(C)C(OC4OC(CO)C(O)C(O)C4O)C(OC)C3O)C(C)O2)C(C)O1 (stereo partly drawn)",
    "result": "inactive [at 9.52 µM]"
  }
]
